Data provenance: PubChem BioAssay AID248

Test system: L1210 leukemia ip in BDF1 mice, survival T/C
Experiment: NCI In Vivo Anticancer Drug Screen. Data for tumor model L1210 Leukemia (intraperitoneal) in B6D2F1 (BDF1) mice
Conditions: endpoint: mean survival time; dose: 100.0 mg/kg/injection; schedule: Q01DX001 (ip); vehicle: saline; higher = longer survival
Toxic doses and inconclusive results are not listed.
Measured T/C by item
observation.type: T/C

>>> measured_result("CCOc1ccc(C(=O)C(C)CN2CCN(C)CC2)cc1 (centres undefined)")
"98 % of control"
>>> measured_result("ClCc1cccc2c(CCl)cccc12")
"101 % of control"
>>> measured_result("Cc1cc(CCNC=O)c(C)c2c1sc1ccccc12")
"97 % of control"
>>> measured_result("NC(=O)CN(CC(N)=O)CC(N)=O")
"102 % of control"
>>> measured_result("COCCC(=O)COC")
"95 % of control"
>>> measured_result("CCCCCCCCC(S(=O)(=O)CC)S(=O)(=O)CC")
"97 % of control"
>>> measured_result("CCCCN(Cl)C(C)=O")
"96 % of control"
>>> measured_result("O=C(Nc1ccc(F)cc1)c1ccc(C(=O)Nc2ccc(F)cc2)cc1")
"100 % of control"
>>> measured_result("Cc1cccc(C)c1N=C(N)NN")
"96 % of control"
>>> measured_result("CCOC(=O)C1C2CCCCC21 (centres undefined)")
"102 % of control"
>>> measured_result("Cn1nc(SCc2ccccc2)c(N)nc1=O")
"102 % of control"
>>> measured_result("O=c1[nH]cnc2ncccc12")
"106 % of control"
>>> measured_result("COc1ccccc1C1CCCC1OS(C)(=O)=O (centres undefined)")
"98 % of control"
>>> measured_result("O=c1[nH]c2cc3ccccc3cc2c2ccccc12")
"109 % of control"
